Every entry's value here was drawn from PubChem BioAssay (NCI).

system: IGROV1 ovarian; assay: NCI tumour cell line growth inhibition, 48 h

>  <COMPOUND>
O=C(c1ccccc1)[C@H]1Nc2ccc(Cl)cc2[C@H]2OCCC[C@@H]12

>  <TGI>
> 100 µM

$$$$
>  <COMPOUND>
NC(=O)c1oc([N+](=O)[O-])c(-c2ccccc2)c1-c1ccccc1

>  <TGI>
31.5 µM

$$$$
>  <COMPOUND>
COP(=O)(OC)C(=NCc1ccccc1)NNc1ccc([N+](=O)[O-])cc1

>  <TGI>
> 100 µM

$$$$
>  <COMPOUND>
COc1ccc(C2C3CCc4ccccc4C3=NN2S(=O)(=O)c2ccc(Cl)cc2)cc1 (stereo not given)

>  <TGI>
52.9 µM

$$$$
>  <COMPOUND>
CC(C)(O)C1CCC(Nc2ccc3ncc(-c4cccc(C(F)(F)F)c4)n3n2)CC1 (stereo not given)

>  <TGI>
11.6 µM

$$$$

###

test system: SR leukemia; experiment: NCI tumour cell line growth inhibition, 48 h
PROPERTY_NAME: TGI

>  <COMPOUND>
C[C@]12CC[C@@H]3c4ccc(O)cc4CC[C@H]3[C@@H]1CC[C@@H]2NS(=O)(=O)c1cccc(C(F)(F)F)c1

>  <TESTED_ON>
SR leukemia

>  <PROPERTY_NAME>
TGI

>  <ENDPOINT_RESULT>
27.2 µM

$$$$
>  <COMPOUND>
C=C(C)[C@@H]1CC[C@]2(C(=O)NCCNCCNCCN)CC[C@]3(C)[C@H](CC[C@@H]4[C@@]5(C)CC[C@H](O)C(C)(C)[C@@H]5CC[C@]43C)[C@@H]12

>  <TESTED_ON>
SR leukemia

>  <PROPERTY_NAME>
TGI

>  <ENDPOINT_RESULT>
> 100 µM

$$$$
>  <COMPOUND>
COc1ccc(C2C(=O)C(Cl)N2Nc2nc(C)cc(=O)[nH]2)cc1OC (centres undefined)

>  <TESTED_ON>
SR leukemia

>  <PROPERTY_NAME>
TGI

>  <ENDPOINT_RESULT>
> 100 µM

$$$$
>  <COMPOUND>
Nc1ncnc2c1ncn2CC(O)C(=O)O (centres undefined)

>  <TESTED_ON>
SR leukemia

>  <PROPERTY_NAME>
TGI

>  <ENDPOINT_RESULT>
> 100 µM

$$$$

###

system: OVCAR-3 ovarian; assay: NCI tumour cell line growth inhibition, 48 h
Measured TGI, listed per entry for reference.

>  <MOLECULE>
COc1cc(/C=C/C(=O)OC2C(O)C3CC(OC(=O)c4cc(OC)c(OC)c(OC)c4)CC2N3C)cc(OC)c1OC (stereo not given)

>  <OUTPUT_UNIT>
µM

>  <QUALIFIER>
>

>  <TGI>
50

$$$$
>  <MOLECULE>
CC(=O)Oc1ccc2c(C)cc(=O)oc2c1

>  <OUTPUT_UNIT>
µM

>  <QUALIFIER>
>

>  <TGI>
100

$$$$
>  <MOLECULE>
CC(=O)CCC(=O)C(=[N+]=[N-])S(=O)(=O)c1ccccc1

>  <OUTPUT_UNIT>
µM

>  <QUALIFIER>
>

>  <TGI>
100

$$$$
>  <MOLECULE>
C/C(=N\NC(=S)NC1CCCC1)c1ccccn1

>  <OUTPUT_UNIT>
µM

>  <QUALIFIER>
=

>  <TGI>
10.3

$$$$
>  <MOLECULE>
Cc1cccc2c(=O)c3c(O)cc(O)cc3[nH]c12

>  <OUTPUT_UNIT>
µM

>  <QUALIFIER>
>

>  <TGI>
10

$$$$
>  <MOLECULE>
O=C1Nc2ccccc2C1Cc1ccc([N+](=O)[O-])cc1 (stereo not given)

>  <OUTPUT_UNIT>
µM

>  <QUALIFIER>
>

>  <TGI>
100

$$$$
>  <MOLECULE>
Cc1cc(C)c2c(c1)Nc1ccccc1P2c1ccccc1 (stereo not given)

>  <OUTPUT_UNIT>
µM

>  <QUALIFIER>
=

>  <TGI>
61

$$$$
>  <MOLECULE>
C=CC1=C[C@@H]2[C@@H]3O[C@]4(CC[C@H](O4)[C@@H](C)C[C@@H](O)C3=O)C[C@H](O)C3=NCC[C@@]32CC1

>  <OUTPUT_UNIT>
µM

>  <QUALIFIER>
<

>  <TGI>
0.00333

$$$$
>  <MOLECULE>
CCN1CN(c2ccccc2)C2(CCN(CCCSc3ccc(F)cc3)CC2)C1=O

>  <OUTPUT_UNIT>
µM

>  <QUALIFIER>
=

>  <TGI>
27.2

$$$$
>  <MOLECULE>
CN1CCN(c2nc(NCCCCNc3ccnc4cc(Cl)ccc34)c3ccccc3n2)CC1

>  <OUTPUT_UNIT>
µM

>  <QUALIFIER>
=

>  <TGI>
22.6

$$$$
